experimental.target: PPARα receptor (Homo sapiens, UniProt Q07869)
Sequence (Q07869 174-468 limits assumed): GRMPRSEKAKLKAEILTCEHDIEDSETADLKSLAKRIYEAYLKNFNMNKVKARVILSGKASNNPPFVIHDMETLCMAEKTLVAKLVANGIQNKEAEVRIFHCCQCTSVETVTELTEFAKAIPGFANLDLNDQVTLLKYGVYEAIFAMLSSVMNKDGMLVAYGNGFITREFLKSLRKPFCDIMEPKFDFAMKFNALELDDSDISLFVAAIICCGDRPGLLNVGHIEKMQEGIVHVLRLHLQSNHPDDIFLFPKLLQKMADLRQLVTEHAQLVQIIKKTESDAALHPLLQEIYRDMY
run.description: Binding and cotransfection studies, PPARα ("binding assay")
Hi there, I'd appreciate the recorded EC50 for every entry that follows.
Respond with the bare value in nM.

Recorded result, CC(C)(Oc1ccc(OC(CCCC(F)(F)F)c2nn(-c3ccc(C(F)(F)F)cc3)c(=O)n2-c2c(F)cccc2F)cc1)C(=O)O (racemic) [Example 57] , EC50: 872

The molecule listed as Cc1cc(OCc2nn(-c3ccc(C(F)(F)F)cc3)c(=O)n2-c2ccccc2F)ccc1OC(C)(C)C(=O)O [Example 13] shows EC50 equal to 19.5

EC50 for COCCn1c(COc2ccc(OC(C)(C)C(=O)O)c(C)c2)nn(-c2ccc(C(F)(F)F)cc2)c1=O [Example 2] is 256

The molecule listed as Cc1cc(OCc2nn(-c3ccc(C(F)(F)F)cc3)c(=O)n2C(C)C)ccc1OC(C)(C)C(=O)O [Example 1] has a reported EC50 of 309
